Provenance of the data: ChEMBL document CHEMBL1121409

- Assay info: The compound was tested for half life in presence of salicylate as additive (20 mM)
- Format: ADME
Property measured: half-life (min)
Just the number please, in min, no unit attached.

Request: Given CC(=O)N(O)c1ccc(O)cc1 , state its recorded half-life.
Result: 6.5

----------
- Assay info: The compound was tested for half life in presence of pyrogallol as additive (20 mM)
- Format: ADME
Property measured: half-life
Number first, unit second: that is the form wanted.

Request: Which value of half-life has been reported for CC(=O)N(O)c1ccc(O)cc1 in the records?
Result: 1 h

----------
- Assay info: The compound was tested for half life in presence of thiosulphate as additive (20 mM)
- Assay type: ADME
Property measured: half-life

Request: Look at this compound and give its reported half-life. CC(=O)N(O)c1ccc(O)cc1
Result: 31 min

----------
- Assay info: The compound was tested for half life in presence of control
- Format: ADME
Property measured: half-life (min)
The reply should contain only the number, in min.

Request: Quick one: half-life of CC(=O)N(O)c1ccc(O)cc1 ?
Result: 9.4

----------
- Assay info: The compound was tested for half life in presence of cysteamine as additive (20 mM)
- Format: ADME
Property measured: half-life (min)
Numbers only; they are read as min.

Request: Consider the compound shown here: CC(=O)N(O)c1ccc(O)cc1 What is its recorded half-life?
Result: 72

----------
- Assay info: The compound was tested for half life in presence of methionine as additive (20 mM)
- Format: ADME
Property measured: half-life (min)
Field: numeric (min). Do not append units.

Request: Please look up its half-life: CC(=O)N(O)c1ccc(O)cc1
Result: 31

----------
- Assay info: The compound was tested for half life in presence of aspirin as additive (20 mM)
- Format: ADME
Property measured: half-life (min)
Expressed in min, but write only the number.

Request: Give its half-life value. Item: CC(=O)N(O)c1ccc(O)cc1
Result: 6.4

----------
- Assay info: The compound was tested for half life in presence of acetaminophen as additive (20 mM)
- Format: ADME
Property measured: half-life (min)
Number in min, nothing else.

Request: Record request: half-life value, item CC(=O)N(O)c1ccc(O)cc1
Result: 33

----------
- Assay info: The compound was tested for half life in presence of dithionite as additive (20 mM)
- Type: ADME
Property measured: half-life

Request: Reported half-life for CC(=O)N(O)c1ccc(O)cc1 : what is it?
Result: 24 min

----------
- Assay info: The compound was tested for half life in presence of ethanol as additive (20 mM)
- Assay type: ADME
Property measured: half-life

Request: Any idea what its half-life is? The compound is CC(=O)N(O)c1ccc(O)cc1
Result: 6.7 min

----------
- Assay info: The compound was tested for half life in presence of N-acetyl cysteine as additive (20 mM)
- Assay type: ADME
Property measured: half-life (h)
All answers are understood in h, so give the number only.

Request: Request the reported half-life associated with CC(=O)N(O)c1ccc(O)cc1
Result: 1.13
